These entries and their values trace back to ChEMBL document CHEMBL3576831.

# TEST DETAILS: Oral bioavailability in rat at 10 mg/kg
# Format: ADME, organism-based
# CONDITION SET: in vivo
RECORDED METRIC: bioavailability (%)
Only the number, expressed in %, is required.

If you can, please state the reported bioavailability value of C[C@H](c1ccc(F)cc1)N(Cc1cccc(C(=O)O)c1)C(=O)c1cnc2ccccc2c1 [PF-05105679] .
62

* * *

# SYSTEM TESTED: Transient receptor potential cation channel subfamily M member 8 (Homo sapiens, UniProt Q7Z2W7)
# Sequence (Q7Z2W7 whole entry): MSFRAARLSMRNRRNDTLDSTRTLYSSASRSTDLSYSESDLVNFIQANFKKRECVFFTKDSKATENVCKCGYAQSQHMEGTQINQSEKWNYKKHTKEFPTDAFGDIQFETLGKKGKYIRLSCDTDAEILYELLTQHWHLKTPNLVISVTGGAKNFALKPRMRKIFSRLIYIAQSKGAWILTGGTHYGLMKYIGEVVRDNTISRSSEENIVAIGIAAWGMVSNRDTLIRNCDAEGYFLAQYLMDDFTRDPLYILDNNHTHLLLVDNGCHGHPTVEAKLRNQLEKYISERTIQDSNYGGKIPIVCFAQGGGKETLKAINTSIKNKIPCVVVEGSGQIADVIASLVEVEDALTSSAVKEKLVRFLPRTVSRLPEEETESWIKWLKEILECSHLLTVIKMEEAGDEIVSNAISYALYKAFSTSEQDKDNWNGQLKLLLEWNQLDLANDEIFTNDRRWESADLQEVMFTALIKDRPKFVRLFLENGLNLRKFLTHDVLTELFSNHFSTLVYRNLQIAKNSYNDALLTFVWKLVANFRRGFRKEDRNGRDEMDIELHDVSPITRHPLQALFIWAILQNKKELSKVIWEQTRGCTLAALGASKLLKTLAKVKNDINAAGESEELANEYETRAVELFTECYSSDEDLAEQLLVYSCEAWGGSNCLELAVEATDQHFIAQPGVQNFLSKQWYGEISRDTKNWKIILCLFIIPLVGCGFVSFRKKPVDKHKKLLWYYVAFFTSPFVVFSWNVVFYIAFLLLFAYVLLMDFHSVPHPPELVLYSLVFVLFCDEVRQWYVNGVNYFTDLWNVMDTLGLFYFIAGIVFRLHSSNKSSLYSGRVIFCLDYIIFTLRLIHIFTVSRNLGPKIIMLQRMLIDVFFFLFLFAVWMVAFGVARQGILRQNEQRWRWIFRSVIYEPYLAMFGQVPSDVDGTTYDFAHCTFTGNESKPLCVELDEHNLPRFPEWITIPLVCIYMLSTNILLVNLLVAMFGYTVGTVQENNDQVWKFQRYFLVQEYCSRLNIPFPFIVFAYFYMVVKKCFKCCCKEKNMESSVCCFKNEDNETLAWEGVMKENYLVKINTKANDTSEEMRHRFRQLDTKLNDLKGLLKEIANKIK
# TEST DETAILS: Antagonist activity against human recombinant TRPM8 expressed in CHO T-rex cells assessed as inhibition of WS12-induced calcium response pre-incubated for 20 mins before WS12 addition
# Format: cell-based
pIC50: −log10 of the molar value.
RECORDED METRIC: pIC50

[[record]]
structure = "C[C@H](c1ccc(F)cc1)N(Cc1cccc(C(=O)O)c1)C(=O)c1cn2ccccc2n1"
recorded_metric = "pIC50"
measured_number = 6.51


I = CC[C@H](c1ccc(F)cc1)N(Cc1cccc(C(=O)O)c1)C(=O)c1cnc2ccccc2c1
II = C[C@H](c1ccc(F)cc1)N(Cc1cccc(C(=O)O)c1)C(=O)c1cc2ccccc2cn1
Which item exceeds the other in pIC50, I or II ? Lab log: write the label of the selected item as the result.
II
